Ref: ChEMBL document CHEMBL3632591

- MEASUREMENT_NOTES: Plasma concentration in Cynomolgus monkey at 2 mg/kg, iv administered as single dose measured after 24 hrs
- Assay type: ADME, organism-based, Macaca fascicularis
TEST_READOUT: concentration at 24 h (ng/mL)
Report only the number, with the unit ng/mL understood.

Fill blank: measured concentration at 24 h of the molecule `COc1ccc2c(O[C@H]3CCN4C(=O)N(C)CCCCC=C[C@@H]5C[C@@]5(C(=O)NS(=O)(=O)C5(C)CC5)NC(=O)[C@@H]4C3)cc(-c3nc(C(F)(F)F)cs3)nc2c1C` is ____.
66

----------
- MEASUREMENT_NOTES: Cytotoxicity against mouse hepatocytes
- Type: cell-based, Hepatocyte
TEST_READOUT: CC50

Fill blank: measured CC50 of the compound `COc1ccc2c(O[C@H]3CCN4C(=O)N(C)CCCCC=C[C@@H]5C[C@@]5(C(=O)NS(=O)(=O)C5(C)CC5)NC(=O)[C@@H]4C3)cc(-c3nc(C(F)(F)F)cs3)nc2c1C` is ____.
> 10 µM
